# assay context: in n-propanol, 318.15 K
quantity kind: solubility (mole fraction)

- structure as smiles: "NNC(=O)c1ccncc1"
  endpoint value: 0.0084

---

# assay context: in methanol, 308.15 K

- structure as smiles: "NNC(=O)c1ccncc1"
  solubility (mole fraction): 0.0131
